# experiment-description: qHTS screen for small molecules that inhibit ELG1-dependent DNA repair in human embryonic kidney (HEK293T) cells expressing luciferase-tagged ELG1; further: nearly all actives have a fitted effect of over 55% in size
# run-parameters: HEK293T ELG1-luciferase reporter, luminescence, 16 h, DNA damage induced by 5-fluorouridine; series mostly up to 46.1 µM
About 7,700 (2.3%) of roughly 330,000 compounds were called active. Inconclusive results (about 26%) are left out. The call rests on the fitted dose curve; in most records, active means well fitted inhibition curve with a large enough effect; inconclusive means small, poorly fitted or top-dose-only effect, or effect the other way; inactive means flat fitted curve, though single readings scatter. The sample holds actives, similar compounds and a random draw of the others, so the mix is not that of the screen.
Outcome field: choose from label 1 for active, label 0 for inactive

Write down the call the test reported for this compound. Item: CCOc1cccc(/C=N/NC(=S)NCCN2CCOCC2)c1O label 1

Write down the call the test reported for this compound. Item: COc1cc2ccccc2cc1C(=O)Nc1ccc(N2CCOCC2)cc1 label 0

Write down the call the test reported for this compound. Item: Cn1nccc1C(=O)N1CCCC(C(=O)c2ccc(Oc3ccccc3)cc2)C1 (stereo not drawn) label 0

Write down the call the test reported for this compound. Item: Cc1ccc2c(c1)C1CN(C)CCC1N2S(=O)(=O)c1cccc(F)c1 (stereo not drawn) label 0

Write down the call the test reported for this compound. Item: C[C@H]1COC(=O)[C@H](CC(=O)OC(C)(C)C)C/C=C\C[C@@H](CC(=O)N[C@H](CO)Cc2ccccc2)C(=O)N1 label 0

Write down the call the test reported for this compound. Item: Fc1ccc2[nH]c3c(N4CCN(Cc5ccc6c(c5)OCO6)CC4)ncnc3c2c1 label 1

Write down the call the test reported for this compound. Item: COc1ccccc1CNC(=O)[C@@H]1CCCN1C(=O)[C@@H]1Cc2ccccc2CN1C(=O)OC(C)(C)C label 0

Write down the call the test reported for this compound. Item: COc1ccccc1N(C)C(=O)c1cc(S(=O)(=O)N2CCc3ccccc32)cn1C label 0

Write down the call the test reported for this compound. Item: CC(=O)Nc1ccc(S(=O)(=O)NCC(=O)OCC(=O)c2ccc[nH]2)cc1 label 0

Write down the call the test reported for this compound. Item: CC(Oc1ccc(F)cc1)C(=O)N1CCN(c2ncccn2)CC1 (stereo not drawn) label 0

Write down the call the test reported for this compound. Item: Cc1nc(N2CCN(c3ccccn3)CC2)c2c(C)c(C(=O)Nc3ccc(F)c(Cl)c3)sc2n1 label 1

Write down the call the test reported for this compound. Item: O=C(Nc1ccc(N2CCN(C(=O)c3ccccc3)CC2)c(Cl)c1)c1cccnc1 label 1

Write down the call the test reported for this compound. Item: O=C1/C(=C\c2cccnc2)CN(Cc2ccccc2)C/C1=C\c1cccnc1 label 1

Write down the call the test reported for this compound. Item: COc1ccccc1N1CCN(C(=O)c2ccc(S(=O)(=O)N3CCCCC3)cc2)CC1 label 0

Write down the call the test reported for this compound. Item: COC(=O)C1=C(C)NC2=C(C(=O)c3ccccc32)C1c1ccc(-c2ccc(C(=O)O)cc2)o1 (stereo not drawn) label 1

Write down the call the test reported for this compound. Item: O=C(c1ccc(S(=O)(=O)N2CCCC2)cc1)N1CCN(c2ccccc2F)CC1 label 0

Write down the call the test reported for this compound. Item: O=c1[nH]c(N2CCN(Cc3ccc4c(c3)OCO4)CC2)nc2c1CCCC2 label 0

Write down the call the test reported for this compound. Item: COc1ccc(NC(=O)c2sc(N3CCOCC3)nc2-c2ccccc2)c(OC)c1 label 1

Write down the call the test reported for this compound. Item: O=C(Cn1ccc2cc(S(=O)(=O)N3CCCC3)ccc21)NCc1ccccc1 label 0

Write down the call the test reported for this compound. Item: CC(C)(C)n1nnnc1C(c1ccc(F)cc1)N1CCN(Cc2ccc3c(c2)OCO3)CC1 (stereo not drawn) label 0

Write down the call the test reported for this compound. Item: O=C(CSc1ncnc2sccc12)NC1CCS(=O)(=O)C1 (stereo not drawn) label 0

Write down the call the test reported for this compound. Item: COc1cc([N+](=O)[O-])ccc1NC(=S)N1CCN(c2ccccn2)CC1 label 0

Write down the call the test reported for this compound. Item: COc1ccc(/C(C)=N/Nc2cc(C(F)(F)F)ccc2Cl)c(OC)c1 label 0

Write down the call the test reported for this compound. Item: Cc1nn(C)c(C)c1NS(=O)(=O)c1ccc(OC(F)(F)F)cc1 label 0

Write down the call the test reported for this compound. Item: CCOC(=O)C1=C(c2ccc(OC)cc2)C(=O)c2ccccc2C1=O label 1

Write down the call the test reported for this compound. Item: CN(C)c1ccnc2sc3c(=O)n(Cc4ccccc4)cnc3c12 label 1

Write down the call the test reported for this compound. Item: O=Cc1cn(Cc2ccccc2)nc1-c1cccnc1 label 0

Write down the call the test reported for this compound. Item: O=C1NCC(=O)N(Cc2ccccc2)/C1=C/c1ccccc1 label 0

Write down the call the test reported for this compound. Item: O=C(NCC(c1cccs1)N1CCOCC1)c1cc(Cl)ccc1[N+](=O)[O-] (stereo not drawn) label 0

Write down the call the test reported for this compound. Item: O=c1c2[nH]c3ccc(Cl)cc3c2ncn1Cc1ccccn1 label 0

Write down the call the test reported for this compound. Item: COc1cccc(NC(=S)NCCCN2CCOCC2)c1 label 0

Write down the call the test reported for this compound. Item: CSc1ncc(C(=O)Nc2ccc(C)cc2C)c(C)n1 label 0

Write down the call the test reported for this compound. Item: O=C(c1c(Cl)cccc1Cl)N1CCN(c2cccc3[nH]ccc23)CC1 label 1

Write down the call the test reported for this compound. Item: Cc1ccc(NC(=S)NCCN2CCOCC2)cc1 label 0

Write down the call the test reported for this compound. Item: O=C(Nc1cccc(Cl)c1N1CCOCC1)c1cccnc1 label 0

Write down the call the test reported for this compound. Item: O=c1c2c(ncn1Cc1ccccc1)nc1n2CCC1 label 0

Write down the call the test reported for this compound. Item: CC(C)[C@H](NC(=O)N1c2ccccc2NC(=O)[C@@H]1C(C)C)C(=O)N[C@H](C(=O)O)c1ccccc1 label 0

Write down the call the test reported for this compound. Item: O=C(Cc1ccccc1)Nc1ccc(NC(=O)c2cccnc2)cc1 label 0

Write down the call the test reported for this compound. Item: O=C(CN1C(=O)c2ccccc2S1(=O)=O)N1CCc2ccccc21 label 1

Write down the call the test reported for this compound. Item: CC12CCC(C(=O)N3CCN(c4ncccn4)CC3)(c3nc4ccccc4nc31)C2(C)C (stereo not drawn) label 1

Write down the call the test reported for this compound. Item: CC1CC(C)CN(CCCNC(=O)c2csc3c2CCCCC3)C1 (stereo not drawn) label 0

Write down the call the test reported for this compound. Item: COc1ccc(CCN2C(=O)C(C)=C(C)C2=O)cc1OC label 0

Write down the call the test reported for this compound. Item: COc1ccccc1NC(=O)C1=C(C)NC2=C(C(=O)CCC2)C1c1ccc(C)o1 (stereo not drawn) label 0

###

# experiment-description: qHTS screen for small molecules that inhibit ELG1-dependent DNA repair in human embryonic kidney (HEK293T) cells expressing luciferase-tagged ELG1; further: nearly all actives have a fitted effect of over 55% in size
# run-parameters: HEK293T ELG1-luciferase reporter, luminescence, 16 h, DNA damage induced by 5-fluorouridine; series mostly up to 46.1 µM
The campaign covered roughly 330,000 compounds. About 7,700 (2.3%) were called active. About 26% were inconclusive and are not listed. Calls follow the shape of the dose curve; as a rule, active = well fitted inhibition curve with a large enough effect; inconclusive = small, poorly fitted or top-dose-only effect, or effect the other way; inactive = flat fitted curve, though single readings scatter. Shown is part of a subset that was picked to be rich in actives.
Outcome field: choose from active, inactive

Write down the call the test reported for this molecule. Item: COc1ccc(N2CCN(C(=O)c3ccccc3NC(=O)C3=C(C)OCCS3)CC2)cc1 inactive

Write down the call the test reported for this molecule. Item: O=C(C1CCN(C2CCN(Cc3cccc4c3OCO4)CC2)CC1)N1CCOCC1 inactive

Write down the call the test reported for this molecule. Item: COc1cccc(CCNC(=O)c2cccc(NC(=O)C3=C(C)OCCS3)c2)c1 active

Write down the call the test reported for this molecule. Item: CC[C@]1(c2ccccc2OC)C(=O)N(C(=O)OC)N1C(=O)OC inactive

Write down the call the test reported for this molecule. Item: CCCCNC(=O)c1ccccc1NC(=O)C1=C(C)OCCS1 inactive

###

# experiment-description: qHTS screen for small molecules that inhibit ELG1-dependent DNA repair in human embryonic kidney (HEK293T) cells expressing luciferase-tagged ELG1; further: nearly all actives have a fitted effect of over 55% in size
# run-parameters: HEK293T ELG1-luciferase reporter, luminescence, 16 h, DNA damage induced by 5-fluorouridine; series mostly up to 46.1 µM
Hit rate of the full screen: of about 330,000 compounds, about 7,700 (2.3%) were called active. Roughly 26% stayed inconclusive and do not appear here. The call rests on the fitted dose curve; in most records, active means well fitted inhibition curve with a large enough effect; inconclusive means small, poorly fitted or top-dose-only effect, or effect the other way; inactive means flat fitted curve, though single readings scatter. For the sample, actives were picked, then their nearest neighbours and some compounds at random.
Outcome field: choose from active, inactive

Write down the call the test reported for this compound. Item: CC1CCC(NS(=O)(=O)c2ccc3c(c2)CC(=O)N3)CC1 (stereo not drawn) inactive

Write down the call the test reported for this compound. Item: O=C(O)C(NS(=O)(=O)c1cccc2nsnc12)c1ccccc1 (stereo not drawn) inactive

Write down the call the test reported for this compound. Item: COc1ccc(C2=NS(=O)(=O)N(C)C(C(=O)NC(C)c3ccccc3)=C2)cc1 (stereo not drawn) inactive

Write down the call the test reported for this compound. Item: COc1ccccc1NC(=O)Nc1nc(CC(=O)Nc2ccccc2F)cs1 inactive

Write down the call the test reported for this compound. Item: O=C(C(NS(=O)(=O)c1cccc2nsnc12)c1ccccc1)N1CCN(c2ccccn2)CC1 (stereo not drawn) inactive

Write down the call the test reported for this compound. Item: Cn1c(-c2sccc2OCc2cccc(C(F)(F)F)c2)n[nH]c1=S active

Write down the call the test reported for this compound. Item: O=C(C(NS(=O)(=O)c1cccc2nsnc12)c1ccccc1)N1CCN(c2ccccc2)CC1 (stereo not drawn) active

Write down the call the test reported for this compound. Item: CCCCCN(C(=O)CCC(=O)OCCOc1ccc(OC)cc1)c1c(N)n(CCCC)c(=O)[nH]c1=O inactive
